Sourced from PubChem BioAssay (NCI)

System: RPMI-8226 leukemia
Assay: NCI-60 one-dose screen, 48 h
Details: 10 µM unless noted
Compounds without any hit were thinned out: in the full panel of roughly 83,000, 20% have a hit. Activity calls are given as the source filed them. Rule for the calls: active = growth percent below 10; inactive = the rest.
Your answer must be one of the following: active, inactive

Identify the outcome logged in this assay for the compound shown: Cc1cc2c(C(C)C)c(O)c(O)c(/C=N/O)c2c(O)c1-c1c(C)cc2c(C(C)C)c(O)c(O)c(/C=N/O)c2c1O inactive

For CN1CCN(CC(=O)N(C)c2ccc(N=C(c3ccccc3)c3c(O)[nH]c4ccc([N+](=O)[O-])cc34)cc2)CC1 , which call appears in the assay record? inactive

Outcome? CN1CCN(Cc2ccc(NC(=O)c3cncc(C#Cc4cnc(N)c5ncccc45)c3)cc2Cl)CC1 inactive

Tell me the assay call for C=C(CNCCc1ccc(O)cc1)[C@@H]1CC[C@]2(CO)CC[C@]3(C)[C@H](CC[C@@H]4[C@@]5(C)CCC(N)C(C)(C)[C@@H]5CC[C@]43C)[C@@H]12 (stereo partly specified) please. active

Name the outcome recorded for COc1cc2nc3cc([N+](=O)[O-])ccc3c(NCCCNCCO)c2cc1OC in the assay. active

Assay outcome for COC(=O)CNC(=O)c1ccc(NC(=O)c2[nH]c(C)c(Cl)c2Cl)c(O[C@H]2CCNC2)c1 : what was it? inactive

For this compound, state the assay outcome: Cc1ccc(S(=O)(=O)c2nc(-c3ccccc3)oc2S(C)=O)cc1 (stereo unspecified) active

What did the test return for Fc1ccc(/C=C/c2cc(/C=C/c3ccc(F)cc3)n(-c3cc(F)cc(F)c3)n2)cc1 ? inactive

Field: outcome | Entry: O=c1n(C2OC(CO)C(O)C2O)ccc2nccn12 (stereo unspecified) inactive

Assay result, entry O=C(Nc1ccccc1C(F)(F)F)C1=NCCCCN1 — outcome? inactive

I'd appreciate the recorded outcome for Cc1ccc2c(n1)C[C@H](C(C)(C)O)CC[C@H]2C from this test. inactive

Recorded test outcome, item CC(C)c1nc(N(C)S(C)(=O)=O)nc(-c2ccc(F)cc2)c1/C=C/C(=O)C[C@@H](O)CC(=O)O inactive

Can you look up the reported call for COc1cc(NC(=O)c2cncnc2Nc2ccc3c(ccn3Cc3cccc(F)c3)c2)cc(OC)c1 for me? inactive

// outcome(item) with item = Cc1nc2sc(C(=O)Nc3ccccc3)c(N)c2cc1C(O)c1ccccc1 (stereo unspecified) active

What did this assay record as the result for CC(=O)Oc1ccccc1C(=O)N(Cc1ccc2c(Cl)cc(Cl)c(O)c2n1)c1ccccc1 ? inactive

What call does the record list for CCN1CCN(CCOc2ccc(CNc3ccc4nc(CCC5CCCCC5)[nH]c4c3)cc2)CC1 ? active

Test call for this compound, please: COc1ccc(-c2csc(NC(=O)CSc3nc(C)cc(=O)[nH]3)n2)cc1 inactive

Just curious, what result did O=C1c2ccccc2C(=O)c2cc(Cn3c[n+](Cc4ccc5ccccc5c4)c4ccccc43)ccc21 get here? active

Can you look up the reported call for O=C(/C=C/c1cccc([N+](=O)[O-])c1)c1ccc(Nc2nc(Nc3ccc(F)cc3)nc(Nc3ccc(Cl)cc3)n2)cc1 for me? inactive

Each compound tested received a call. Report the one for CCOC(=O)c1c(Nc2nc3ccccc3s2)sc2c1CCC(=O)C2 . inactive

Would you mind telling me which call this test gave COC(=O)[C@H]1Cc2c([nH]c3ccccc23)[C@H](c2ccc3c(c2)OCO3)N1 ? inactive

So what was the verdict on Cc1cc2c(c(C)n1)CN(C(=O)Nc1nc(-c3cncs3)ccc1N)C2 in this test? inactive

So what was the verdict on CC1OC(C(=O)N2CCN(CCO)CC2)CC1COC1CCCCC1 (stereo unspecified) in this test? inactive

How did this test come out for O=C(CNc1ncco1)Nc1ccc(S(=O)(=O)c2ccc(NC(=O)CNc3ncco3)cc2)cc1 ? inactive

What outcome does the record of this test show for O=C1/C(=C/c2ccc(Br)cc2)COc2ccc(O)cc21 ? active

Which outcome was entered for the compound O=C(CSc1nnc(-c2ccc(Cl)c(Cl)c2)n1-c1ccccc1)Nc1ccc(C(=O)/C=C/c2ccc(Cl)cc2)cc1 in this test? active

Each compound tested received a call. Report the one for COc1cc2c(c(OC)c1OC)CCC(c1cccc(NC(=O)c3cccc(Cl)c3)c1)O2 (stereo unspecified) . inactive

Hi team, can someone confirm the assay call for CC1=NN(c2cccc(Cl)c2)C(=O)/C1=C\C=C\c1ccccc1 ? inactive

// param item: O=C1/C(=C/c2cccc(Br)c2)COc2ccc(O)c(O)c21 ; yields the recorded call active

Entry O=C1c2c(c3c4cc(F)ccc4oc3c3[nH]c4ccccc4c23)C(=O)N1O : call = ? inactive

Could you kindly confirm the outcome this assay logged for O=C1C(Nc2ccc(Br)cc2)=C(I)C(=O)c2ncccc21 ? active
